test system: UACC-257 melanoma; experiment: NCI tumour cell line growth inhibition, 48 h; in the data active = GI50 below about 0.43 µM; inactive = the rest
// classify into active, inactive

Answered cases to consult:
>>> print(df.to_string())
                                   molecule  assigned_label
0         CCN(Cc1ccc(F)cc1)c1ccc(CO)c(Br)c1          active
1  Cc1cc(N(CCCNc2ccnc3cc(Cl)ccc23)Cc2ccc3c(c2)OCO3)nc(N2CCOCC2)n1          active
2           Clc1nc(Cl)nc(Nc2cccc3ccccc23)n1        inactive

Here is the next item to consider.
Enquiry: Hi, do you know how COc1ccc(-c2nsc3c2NC(=O)CC3c2cccc(OC)c2)cc1 (centres undefined) came out in this test?
Return: inactive

* * *

tested on: PC-3 prostate; test: NCI tumour cell line growth inhibition, 48 h
For each entry below, report its GI50 value.

Examples with their reported GI50 follow.
>>> print(df.to_string())
                                   compound  assayed_target    result
0            O=C(NNc1ccccc1)C(=O)NNc1ccccc1   PC-3 prostate  > 100 µM
1  CC(C(=O)O)c1cccc(Oc2ccccc2)c1 (stereo not given)   PC-3 prostate  > 100 µM
2  COC(=O)c1cc2c(s1)-c1nccc3c1c(nc1ccccc13)C2=O   PC-3 prostate  > 100 µM
3           Clc1nc(Cl)nc(Nc2cccc3ccccc23)n1   PC-3 prostate   84.2 µM
4  COC(=O)c1ccc2c(c1)/C(=C\c1cc(Br)c(O)c(Br)c1)C(=O)N2   PC-3 prostate   7.68 µM

Each of the following entries comes with a recorded value; kindly state GI50 for each.
1. COc1ccc(/C(=C\C=C(C#N)C#N)Sc2nc3ccccc3s2)cc1
2. C#Cc1nc(Nc2cc(C)[nH]n2)c2ccccc2n1
3. O=[P@@]1(c2ccccc2)O[C@H](COCc2ccccc2)[C@@H](OCc2ccccc2)[C@H](OCc2ccccc2)[C@H]1NCc1ccccc1
4. COc1ccc(-c2nnc(N3CCN(C(=O)CN4CCN(c5ccccc5)CC4)CC3)nc2-c2ccc(OC)cc2)cc1
5. Nc1ccn(C2OC(CO)C(O)C2O)c(=O)n1 (stereo not given)

Return:
7.34 µM
0.317 µM
3.03 µM
3.83 µM
> 46.3 µM

* * *

For each entry below, report its TGI value.
tested on: OVCAR-5 ovarian; test: NCI tumour cell line growth inhibition, 48 h

Each of the following entries comes with a recorded value; kindly state TGI for each.
1. CC(=O)NNc1nc(-c2ccc([N+](=O)[O-])cc2)c(C#N)c(=O)n1C
2. O=S(=O)(c1ccccc1)N1N=C2c3ccccc3CCC[C@H]2C1c1ccccc1 (stereo partly specified)
3. COc1cccc2nc3c(C(=O)NCCN(C)C)cccc3cc12
4. O=C(N(O)c1ccccc1Cl)C(O)(c1ccccc1)c1ccccc1

Return:
["77 µM", "> 100 µM", "6.5 µM", "> 100 µM"]

Each of the following entries comes with a recorded value; kindly state TGI for each.
1. Cc1ccc2c(C3C(C#N)=C(N)Oc4cc5ccccc5cc43)cc(=O)oc2c1 (stereo unspecified)
2. CN(C)c1ccc(N=Nc2ccccn2)c(O)c1
3. O=C1CCC/C=C\C[C@H]2C=CC(=O)/C2=C/C[C@H](C/C=C\CC(F)(F)F)O1
4. COc1ccc(/C=C2\c3cc(OC)c(OC)cc3CCN2C(=O)c2ccccc2)cc1OC
5. CN(C)CCCn1cnc2cc(Cl)c(Cl)cc21

Return:
> 100 µM
> 100 µM
3.11 µM
> 100 µM
> 100 µM

Each of the following entries comes with a recorded value; kindly state TGI for each.
1. CS(=O)(=O)Nc1cc(-c2ccc3ncnc(Nc4c(Cl)ccc5c4OCO5)c3c2)cnc1Cl
2. Cn1c2ccccc2c(=O)c2cccc(C(=O)NC(CS)C(=O)O)c21 (stereo unspecified)

Return:
1. 2.1 µM
2. > 100 µM
